# assay.overview: FRG1 expression reporter modulators in myotubes – cell-based, C2C12 myotubes, firefly/Renilla luciferase, luminescence, FRG1 inhibition for FSHD, primary screen (AID 1084)
# recorded.conditions: FRG1 promoter luciferase, higher = more signal, called active from +8 up or from −8 down
test.readout: z-score
API note: the answer field is a bare number with no unit suffix.

Fill in the blank: the reported z-score of `COc1c(C)cc(-c2cc3c(c(-c4ccccc4)n2)[Si](C(C)C)(C(C)C)O[C@H]3c2ccccc2)cc1C` is ____.
0.361

Would you kindly share the measured z-score for C=CCC(OC(C)=O)[C@@H]1[C@@H](N(Cc2ccc(-c3ccccc3)cc2)C(=O)c2ccc(C)cc2)c2cc(OCCCO)ccc2N1C(=O)c1ccc2ccccc2n1 (stereo not given in full) ?
-1.24

State the recorded z-score for this entry: `NC(=O)[C@]1(Cc2ccccc2)N=C(c2ccc(OCCCO)cc2)O[C@@H]1c1ccccc1`
-0.573

What value of z-score has been recorded for this entry: C=CCC(OC(C)=O)[C@@H]1[C@@H](N(Cc2cc3ccccc3o2)C(=O)c2ccc(C)cc2)c2cc(OCCCO)ccc2N1C(=O)c1ccc(-c2ccccc2)cc1 (stereo not given in full)
-1.35

If you can, please state the reported z-score value of O=C1C2C=CC(C(O)c3ccc(Br)cc3)N(n3cnnc3)C2C(=O)N1Cc1ccccc1 (stereo not given) .
0.258

// lookup z-score for `COC(=O)c1c2oc(c1C(=O)OC)C(=O)N[C@H](Cc1ccccc1)Cn1nncc1C1(CCCCC1)NC(=O)N[C@H](CO)CC2`
-1.33

State the recorded z-score for this entry: `COc1ccc([Si](C)(C)[C@@H]2[C@@H](CC(=O)N3Cc4ccccc4C[C@H]3CO)O[C@]3(C(=O)N(Cc4cccc(N5C(=O)COc6ccccc65)c4)c4ccccc43)[C@H]2C)cc1`
-2.29

Fill blank: measured z-score of the molecule `CC(C)NC(=O)[C@@H]1c2ccccc2C(=O)N(C2CCCCC2)[C@H]1c1ccc(CO)cc1` is ____.
0.492

Item `COCCOC(=O)N1C(=O)[C@@]2(c3cc(C#Cc4ccc(OC)cc4)ccc31)[C@H](c1ccc(O)cc1)N1[C@H](c3ccccc3)[C@H](c3ccccc3)OC(=O)[C@H]1[C@@H]2C(=O)N1CCN(c2ncccn2)CC1` has what recorded z-score?
-0.431

Record request: z-score value, item `O=C1c2ccccc2[C@](Cc2ccccc2I)(C(=O)O)[C@H](c2ccc(CO)cc2)N1Cc1ccccc1C(F)(F)F`
-0.524

Find the recorded z-score belonging to CCN(CC)c1ccc(N2CC=CC34O[C@@H]5C=CCOC(=O)[C@@H]5[C@H]3C(=O)N(CCCCCO)[C@@H]4C2=O)cc1 (stereo not given in full) and report it.
-0.309

Quick one: z-score for `COCCCNC(=O)[C@]1(Cc2ccccc2N=[N+]=[N-])N=C(c2ccc(OCCCO)cc2)O[C@@H]1c1ccccc1CN=[N+]=[N-]` ?
-0.0402

Field request: z-score | item: `O=C1C[C@@](C(=O)O)(c2ccc([N+](=O)[O-])cc2)[C@@H](c2ccc(CO)cc2I)N1C1CCCCC1`
-1.26

Can you share its z-score? I mean this molecule: `Cc1cccc(/C=C/C=O)c1`
0.641

Can you share its z-score? I mean this molecule: `CCOC(=O)C=Cc1cccc(OC)c1O`
6.99

---

# assay.overview: probe aLefty1 binding on compound microarray – biochemical, small-molecule microarray, 635/667 nm fluorescence, primary screen (AID 1153);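 further: score merges spot fluorescence with signal-to-noise ratio from the scanned slide images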
# recorded.conditions: higher = more signal
test.readout: composite z-score
Please respond with just the number, no unit label.

Given the entry O=C1OCCC/C=C\[C@H]2OC34C=CCN(Cn5nnc6ccccc65)C(=O)[C@H]3N(CCCO)C(=O)[C@@H]4C12 (some centres not stated) , report its measured composite z-score.
0.123

Can you share its composite z-score? I mean this compound: `COCCCNC(=O)[C@@]1(Sc2ccc(C)cc2)CC(=O)N(Cc2ccccc2)[C@@H]1c1ccc(CO)cc1`
-1.12

Consider the compound shown here: `O=C1[C@H]2C=C(Br)[C@H](C[C@@H]2OCCOCCO)[C@@]12CO2` What is its recorded composite z-score?
-0.276

Data request, read-out composite z-score, for `[N-]=[N+]=NCc1ccccc1C[C@@]1(C(=O)NCc2ccccc2)N=C(c2ccc(OCCCO)cc2)O[C@@H]1c1ccccc1CN=[N+]=[N-]`
0.7

Tell me the measured composite z-score of [N-]=[N+]=NCc1ccccc1C[C@]1(C(=O)NCC(O)CO)COC(c2ccc(OCCCO)cc2)=N1 (some centres not stated) , please.
0.746

Look up composite z-score for this compound: `COc1ccc([Si](C)(C)[C@H]2[C@H](CC(=O)N3CCC[C@H]3CO)O[C@@]3(C(=O)N(c4ccccc4)c4ccccc43)[C@@H]2C)cc1`
0.228

Value lookup for composite z-score; key = `C=CCOC(=O)[C@@H]1[C@H]2C(=O)O[C@H](c3ccccc3)[C@H](c3ccccc3)N2[C@H](c2ccc(OCCOC(=O)[C@H]3C[C@H]4C(=O)N[C@@H](CC(C)C)C(=O)N4[C@H]3c3cccc(OCCO)c3)cc2)[C@@]12C(=O)Nc1ccc(I)cc12`
0.185

Which composite z-score is reported for this compound? `[N-]=[N+]=NCc1ccccc1C[C@]1(C(=O)NCc2ccccc2)COC(c2ccc(OCCCO)cc2)=N1`
-0.373

Which composite z-score value is on record for `C=CCOC(=O)[C@@H]1[C@H]2C(=O)O[C@H](c3ccccc3)[C@H](c3ccccc3)N2[C@H](c2ccc(OCCOC(=O)[C@H]3C[C@H]4C(=O)N[C@@H](Cc5ccccc5)C(=O)N4[C@H]3c3ccc(O)cc3)cc2)[C@@]12C(=O)Nc1ccc(I)cc12` ?
-0.539

I have this compound here, C[C@H]1C2[C@H](Cc3ccccc3)NC(=O)[C@]23C(=O)N[C@H](Cc2ccccc2)C(=O)N[C@H](Cc2ccccc2)C(=O)NC/C=C/CCC/C=C/C3[C@@H]2O[C@]12C (some centres not stated) , and I need its recorded composite z-score.
-0.19

# get_value(readout='composite z-score', item= `COc1ccc([Si](C)(C)[C@H]2[C@H](CC(=O)N3CCC[C@H]3CO)O[C@@]3(C(=O)N(Cc4cccc(N5CCC5=O)c4)c4ccccc43)[C@@H]2C)cc1` )
0.233

Field request: composite z-score | item: `C=CCNC(=O)[C@H]1[C@@H]2C(=O)O[C@@H](c3ccccc3)[C@@H](c3ccccc3)N2[C@@H](c2ccc(OCCO)cc2)[C@]12C(=O)N(C(=O)OCCOC)c1ccc(C#CC3(O)CCCCCC3)cc12`
0.658

Fill in the blank: the reported composite z-score of `NC(=O)NCC#Cc1ccc2c(c1)[C@]1(C(=O)N2)[C@H](C(=O)NC[C@H](O)c2ccccc2)[C@H]2C(=O)O[C@H](c3ccccc3)[C@H](c3ccccc3)N2[C@@H]1c1ccccc1OCCO` is ____.
0.157

Recorded composite z-score for `C=CCNC(=O)[C@@H]1[C@H]2C(=O)O[C@H](c3ccccc3)[C@H](c3ccccc3)N2[C@H](c2ccccc2OCCO)[C@@]12C(=O)N(C(=O)OCCOC)c1ccc(C#CCC(C(=O)OC)C(=O)OC)cc12` , please?
1.51

Param item = `CC(C)NC(=O)[C@@H]1c2ccccc2C(=O)N(C2CCCCC2)[C@H]1c1ccc(CO)cc1` ; retrieve measured composite z-score.
-0.101

What composite z-score value was documented for this compound, `COC(=O)[C@@]1(Cc2ccc(F)cc2)[C@H]2c3cc(C(=O)N4CCCC4)n(Cc4ccc(Cl)c(C(F)(F)F)c4)c3C[C@H]2CN1C(=O)c1ccccc1` ?
1.99

composite z-score lookup needed for CN1C(=O)C2C=CC(C(O)C3=C[C@H]4C[C@@H](C3)C4(C)C)N(Nc3ccc([N+](=O)[O-])cc3[N+](=O)[O-])C2C1=O (some centres not stated) , thanks.
0.271

Please report the recorded composite z-score for `CCCC[C@@H]1C[C@H]1[C@@H](NC(=O)c1ccccc1)c1ccccc1` .
1.43

What measured composite z-score goes with CS(=O)(=O)CCOC(=O)C1=CC(c2ccc(CO)cc2)=CC(c2cccs2)N(Cc2cccc(OC(F)(F)F)c2)C=C1C(=O)OCCS(C)(=O)=O (configuration not stated) ?
0.0575

composite z-score for `C=C(COC)C(=O)CC[C@H](OC(=O)c1cccnc1)c1ccccc1OCCO` ?
0.473

Endpoint output: composite z-score of `COCCOC(=O)N1C(=O)[C@@]2(c3cc(C#Cc4ccc(OC)cc4)ccc31)[C@H](c1ccc(OCCO)cc1)N1[C@H](c3ccccc3)[C@H](c3ccccc3)OC(=O)[C@H]1[C@@H]2C(=O)N1CCc2cc(OC)c(OC)cc2C1` . Value?
0.212

composite z-score lookup needed for `C=C[C@H](OC)[C@@H](OC(=O)Nc1ccc(SC)cc1)c1ccc(OCCO)cc1` , thanks.
-0.101

// lookup composite z-score for `CCCNC(=O)[C@@]1(C)c2ccccc2C(=O)N(C(C)C)[C@H]1c1ccc(CO)cc1`
0.0371

I would be grateful if you could share the reported composite z-score for `COCCOC(=O)N1C(=O)[C@@]2(c3ccccc31)[C@H](c1ccc(O)cc1)N1[C@H](c3ccccc3)[C@H](c3ccccc3)OC(=O)[C@H]1[C@@H]2C(N)=O` .
-0.379

// lookup composite z-score for O=C1NC(=O)C2C1C=CC(C(O)c1cccs1)N2Nc1ccccn1 (configuration not stated)
-0.0035

I have this compound here, `CCCC[C@@H]1C[C@H]1[C@@H](NC(=O)c1ccco1)c1ccccc1` , and I need its recorded composite z-score.
-0.168

Requested field: composite z-score. Item: `C#C[C@H]1Oc2ccccc2S(=O)(=O)N2CCC[C@@H]12`
-0.106

These measurements were taken from PubChem BioAssay.
